Tested on: Candida albicans
protocol-conditions: 32 ug/mL
Description: Antifungal activity against Candida albicans ATCC 90028 (CO-ADD:FG_001); MIC in YNB media using NBS plates, by OD630
Measured potencies and affinities stand elsewhere.
For each entry below, report its Inhibition value.
Give bare numbers, in %.

Completed entries (count: 5):
compound=CC(C)(CO)[C@H](O)C(=O)NCCC(=O)OCc1cn(C[C@H]2O[C@@H](n3ccc(N)nc3=O)[C@H](O)[C@@H]2O)nn1 value_type=Inhibition result_value=3.13
compound="CC(C)(CN)C(O)C(=O)NCCC(=O)NCCc1ccccc1 (stereo not drawn)" value_type=Inhibition result_value=3.05
compound=CCCCCCCNS(=O)(=O)CCNC(=O)[C@H](O)C(C)(C)CO value_type=Inhibition result_value=-2.91
compound=CC(C)(CO)[C@H](O)C(=O)NCc1cn(C[C@H]2O[C@@H](n3ccc(N)nc3=O)[C@H](O)[C@@H]2O)nn1 value_type=Inhibition result_value=-0.48
compound="CC(C)(CO)C(O)C(=O)NCCCOP(=O)(O)OCC1OC(n2ccc(N)nc2=O)C(O)C1O (stereo not drawn)" value_type=Inhibition result_value=3.26

# batch size: 2; output Inhibition per entry
1. CC(C)(CO)[C@H](O)C(=O)NCCC(=O)NCc1cn(C[C@H]2O[C@@H](n3ccc(N)nc3=O)[C@H](O)[C@@H]2O)nn1
2. CC(C)(CO)[C@@H](O)C(=O)N/C=C/C(=O)NCCc1ccccc1

Found:
1. 2.72
2. 6.96

// CC(C)(C)C(O)C(=O)NCCC(=O)NCCc1ccccc1 (stereo not drawn) : Inhibition value = 0.67
